assay: Anticonvulsant activity was evaluated by rotarod toxicity test and was determined 30 min after subcutaneous administration; type: organism-based; details: mouse, in vivo, sc
REPORTED_PROPERTY: TD50 at 0.5 h (mg/kg)
Write it as a number; the unit mg/kg goes unstated.

Q) Entry COC1(c2ccccc2)CCCNC1=O (stereo unspecified) : reported TD50 at 0.5 h = ?
A) 239

---

Measured TD50, listed per entry.
assay: Anticonvulsant activity was evaluated by rotarod toxicity test after subcutaneous administration; type: organism-based; settings: mouse, in vivo, sc
Write it as a number; the unit mg/kg goes unstated.

Field: example entries. Status: answers known.
1) CN1CCCC(O)(c2ccccc2)C1=O (centres undefined); 350
2) CCOC(=O)N1CCCC(O)(c2ccccc2)C1=O (centres undefined); 451

Now turn to the next compound.
Q) Entry O=C(CCCl)NCc1ccccc1 [BECLAMIDE] : reported TD50 = ?
A) 278
